- TARGET DESC: T1, Evasin-4 (untagged recombinant) (Rhipicephalus sanguineus, UniProt P0C8E9 24-127, appears to be highly glycosylated (six putative N-glycosylation sites))
- T1 sequence: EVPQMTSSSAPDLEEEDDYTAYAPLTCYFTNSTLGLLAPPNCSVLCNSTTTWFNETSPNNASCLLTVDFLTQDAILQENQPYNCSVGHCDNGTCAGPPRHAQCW
- PROTOCOL SUMMARY: SPR

BINDER | Kd, nM
CCL15 (ligand) QFTNDAETELMMSKLPLENPVVLNSFHFAADCCTSYISQSIPCSLMKSYFETSSECSKPGVIFLTKKGRQVCAKPSGPGVQDCMKKLKPYSI | 132
CCL23 (ligand) RVTKDAETEFMMSKLPLENPVLLDRFHATSADCCISYTPRSIPCSLLESYFETNSECSKPGVIFLTKKGRRFCANPSDKQVQVCMRMLKLDTRIKTRKN | 14.1
